# Experimental system: T1, Peptide G (rat PAR-2), N-terminal biotinylated (Rat (Rattus norvegicus), N-terminal biotin via G4S linker)
# T1 construct: also called Peptide G N-Term
# T1 peptide: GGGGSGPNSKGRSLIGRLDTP
# Experiment: peptide ELISA titration
Measured property: EC50 (nM)
Give bare numbers, in nM.

**Q:** Look up EC50: H4H579P (antibody, human IgG4, V domains shown, also called H1H579P variable regions) VH: QVQLVESGGGVVQPGRSLRLSCVASGFTFSRYGMHWVRQAPGKGLEWLIVISYDGINKYYADSVKGRFTISRDNSKNTVYLQMNSLRAEDTGVYYCAKGDFWSGYFDYWGQGTLVTVSS VL: DIVMTQTPLSSPVTLGQPASISCRSSQSLVHSDGNTYLSWLHQRPGQPPRLLIYKISNRFSGVPDRFSGSGAGTDFTLQISRVEAEDVGIYYCMQGTQFPTFGGGTKVEIK
**A:** 0.059
